Origin of measurements: patent US8883807B2

Quick list: Ki per entry.
Target: recombinant human CL receptor/RAMP1 (Homo sapiens, UniProt O60894+Q16602)
Construct: membranes
Sequence (Q16602 23-461): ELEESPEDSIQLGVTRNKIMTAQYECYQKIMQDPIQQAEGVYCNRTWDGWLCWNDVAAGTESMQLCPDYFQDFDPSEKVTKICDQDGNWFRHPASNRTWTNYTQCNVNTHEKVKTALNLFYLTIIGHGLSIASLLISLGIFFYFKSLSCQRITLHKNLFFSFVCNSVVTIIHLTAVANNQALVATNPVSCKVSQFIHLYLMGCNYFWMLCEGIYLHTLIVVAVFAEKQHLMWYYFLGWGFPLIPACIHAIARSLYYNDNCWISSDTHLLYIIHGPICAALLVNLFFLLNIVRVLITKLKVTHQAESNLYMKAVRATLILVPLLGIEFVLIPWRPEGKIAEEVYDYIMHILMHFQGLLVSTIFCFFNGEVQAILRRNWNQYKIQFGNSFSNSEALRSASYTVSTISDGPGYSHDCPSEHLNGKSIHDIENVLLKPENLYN
Sequence (O60894 27-148): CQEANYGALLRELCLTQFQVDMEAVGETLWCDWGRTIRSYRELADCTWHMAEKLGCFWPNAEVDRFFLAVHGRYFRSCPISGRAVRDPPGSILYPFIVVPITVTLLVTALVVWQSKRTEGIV
Experiment: Recombinant Receptor Binding Assay (125I-hCGRP)
Settings: exemplary compounds of the invention
Form entry: value (nM) — number only.

structure_smiles_string	experimental_value
O=C(N[C@H]1C[C@@H](c2c(Cl)cccc2Cl)CN(CC(F)(F)F)C1=O)c1ccc2c(c1)C[C@@]1(C2)C(=O)Nc2ncccc21	0.24

For reference, reported Ki for C[C@@H]1[C@H](c2cccc(Cl)c2)C[C@H](NC(=O)c2ccc3c(c2)C[C@@]2(C3)C(=O)Nc3ncccc32)C(=O)N1CC(F)(F)F stands at 0.17

Lab note: O=C(N[C@H]1C[C@@H](c2cc(F)cc(F)c2)CN(CC(F)(F)F)C1=O)c1ccc2c(c1)C[C@@]1(C2)C(=O)Nc2ncccc21 gave Ki of 0.18

Reported Ki ( C[C@@H]1[C@H](c2c(F)c(F)cc(F)c2F)C[C@H](NC(=O)c2ccc3c(c2)C[C@@]2(C3)C(=O)Nc3ncncc32)C(=O)N1CC(F)(F)F ) = 0.021

###

Biological target: recombinant human CL receptor/RAMP1 (Homo sapiens, UniProt O60894+Q16602)
Construct: membranes
Experiment: Recombinant Receptor Binding Assay (125I-hCGRP)
Details: exemplary compounds of the invention
Counter-ions that a name gives are not always drawn.
observation_type: Ki (nM)
Just the number please, in nM, no unit attached.

Examples from the recorded data:
molecule	observation_type	experimental_value
C[C@@H]1[C@H](c2cc(F)cc(F)c2F)C[C@H](NC(=O)c2ccc3c(c2)C[C@@]2(C3)C(=O)Nc3ncccc32)C(=O)N1CC(F)(F)F [Example 3, hydrochloride]	Ki	0.039
O=C(N[C@H]1C[C@@H](c2cccc(F)c2F)CN(CC(F)(F)F)C1=O)c1ccc2c(c1)C[C@@]1(C2)C(=O)Nc2ncccc21	Ki	0.061
C[C@@H]1[C@H](c2c(F)ccc(F)c2F)C[C@H](NC(=O)c2ccc3c(c2)C[C@@]2(C3)C(=O)Nc3ncccc32)C(=O)N1CC(F)(F)F	Ki	0.025
C[C@@H]1[C@H](c2ccccc2)C[C@H](NC(=O)c2ccc3c(c2)C[C@@]2(C3)C(=O)Nc3ncc(C#N)cc32)C(=O)N1CC(F)(F)F	Ki	0.13
C[C@@H]1[C@H](c2ccccc2)C[C@H](NC(=O)c2ccc3c(c2)C[C@@]2(C3)C(=O)Nc3ncccc32)C(=O)N1CC(F)(F)F	Ki	0.079

Query molecule follows.
// sample CC(C)CN1C[C@H](c2cccc(F)c2F)C[C@H](NC(=O)c2ccc3c(c2)C[C@@]2(C3)C(=O)Nc3ncccc32)C1=O , its Ki was 0.032
